assay_summary: qHTS assay to identify small molecule agonists of the hypoxia (HIF-1) signaling pathway - cell viability counter screen (AID 1224844); note: nearly all actives have a fitted effect of over 50% in size
conditions: HRE-bla ME-180 viability, CellTiter-Glo luminescence, 17 h; series mostly up to 76.8 µM
Records with an inconclusive call do not appear. Activity calls are given as the source filed them. Calls come from the whole dose curve.
Respond with a class label; see 1 = active, -1 = inactive

molecule: COc1ccc(Cc2nccc3cc(OC)c(OC)cc23)cc1OC
category_label: -1
--
molecule: c1cc[n+]2c(c1)-c1cccc[n+]1CC2
category_label: -1
--
molecule: CC(=O)[O][Pb]([c]1ccccc1)([c]1ccccc1)[c]1ccccc1
category_label: 1
--
molecule: CCN(CC)C(=O)N[C@@H]1C=C2c3cccc4[nH]cc(c34)C[C@@H]2N(C)C1
category_label: -1
--
molecule: CCCCN(CCCC)C(=S)S
category_label: -1
--
molecule: C#CCC1=C(C)C(OC(=O)C2C(C=C(C)C)C2(C)C)CC1=O (configuration not stated)
category_label: -1

Attention now turns to another entry.
Name the outcome recorded for O=P(Cl)(Cl)Cl in the assay.
-1
